test system: XF498; assay: NCI tumour cell line growth inhibition, 48 h
Calls of active or inactive are those of the source. Cut-off read from the data, not from the text of the source: active = GI50 up to about 1.1 µM and inactive = higher.
Bench note: report the call from active, inactive

Answered examples (10):
COc1cc(/C=C/C(=O)C(C)(C)C)cc(OC)c1OC :: inactive
Cc1cc(C)nc(NS(=O)(=O)c2ccc(NC(=O)c3ccc(Cl)c4c(Nc5ccc(S(=O)(=O)Nc6nc(C)cc(C)n6)cc5)c5ccccc5nc34)cc2)n1 :: inactive
COc1ccc(C(=O)CC2=Nc3nnc(CCCCCCCc4nnc5n4C(=O)C(CC(=O)c4ccc(OC)cc4)=N5)n3C2=O)cc1 :: inactive
CCOC(=O)C(Cc1ccccc1)NC(=O)OC(C)(C)C (configuration not stated) :: inactive
C=C(C)CCN[Si](c1ccccc1)(c1ccccc1)C(C)(C)C :: inactive
CCCNC(=S)NNC(=O)CSc1nc(-c2ccccc2)c(-c2ccccc2)[nH]1 :: inactive
COc1cc(CNc2nc3c(N)cc(C(F)(F)F)cc3nc2-c2ccccc2)cc(OC)c1OC :: inactive
COc1ccc2nccc(NCCCN3CCN(CCCNc4ccnc5ccc(OC)cc45)CC3)c2c1 :: active
COC1CC(OC)C(O)C(CO)O1 (configuration not stated) :: inactive
CN(C)c1ccc(/C=c2\sc3nnc(-c4ccco4)n3c2=O)cc1 :: inactive

[ask] How did this test come out for Cc1ccc(S(=O)OCC23CC4CC(CC(C4)C2)C3)cc1 (configuration not stated) ?
[reply] inactive

[ask] How did this test come out for O=C1ON(Cc2ccccc2)C(c2ccccc2)N1c1ccccc1 (configuration not stated) ?
[reply] inactive

[ask] How did this test come out for `C=CC(=O)NCNC(=O)C=C` ?
[reply] inactive

[ask] How did this test come out for `Nc1nc2c(N)cc(C(F)(F)F)cc2nc1-c1ccccc1` ?
[reply] inactive

[ask] How did this test come out for c1ccc2c(c1)CCC/C2=N\OCC1CO1 (configuration not stated) ?
[reply] inactive

[ask] How did this test come out for `O=C1NC(=O)C(C(=O)C(=O)Nc2ccc(Br)cc2)C(=O)N1` ?
[reply] inactive

----------
Catalogue of GI50 readings, one per entry.
test system: SNB-75; experiment: NCI tumour cell line growth inhibition, 48 h
The source made the active and inactive calls. No stated cut-off is given here; in the data, active = GI50 up to about 1.1 µM and inactive = higher.

[ask] Tell us which GI50 value is on record for `COc1cc(/C=C/C(=O)c2c([O-])on[n+]2-c2ccccc2)ccc1O`
[reply] 2.5 µM (inactive)

[ask] Tell us which GI50 value is on record for CC(=O)OCC1OC(n2c3c(c(-c4ccc(Cl)cc4)c(C#N)c2=S)C(=O)CC(C)(C)C3)C(OC(C)=O)C(OC(C)=O)C1OC(C)=O (centres undefined)
[reply] 11.4 µM (inactive)

[ask] Tell us which GI50 value is on record for `CCCC(=O)Nc1cc(C(=O)N2C[C@@H]3C[C@]34C2=CC(=O)c2[nH]cc(C)c24)n(COC)c1`
[reply] 7.36 µM (inactive)

[ask] Tell us which GI50 value is on record for `COc1ccc(/C=C/c2cc(OC)cc(OC)c2)cc1`
[reply] 4.82 µM (inactive)

[ask] Tell us which GI50 value is on record for CC(CO)(CO)N1C(=O)C2C3c4ccccc4C(c4ccccc43)C2C1=O (centres undefined)
[reply] 25.4 µM (inactive)

[ask] Tell us which GI50 value is on record for `Cc1ccc(/C=N/Nc2ccc3ccccc3n2)s1`
[reply] > 100 µM (inactive)

----------
Catalogue of GI50 readings, one per entry.
test system: TK-10; assay: NCI tumour cell line growth inhibition, 48 h
Active and inactive are the calls of the source. No stated cut-off is given here; in the data, active = GI50 up to about 1.1 µM and inactive = higher.

Use these answered entries as a reference point.
CCOC(=O)c1ccc(N(CCOS(=O)(=O)c2ccc(C)cc2)CCOS(=O)(=O)c2ccc(C)cc2)cc1 :: > 100 µM (inactive)
COc1ccc2nccc(NCCCN3CCN(CCCNc4ccnc5ccc(OC)cc45)CC3)c2c1 :: 5.31 µM (inactive)
O=C1C(Cl)N(c2cccc(Cl)c2)C1c1c[nH]c2ccccc12 (stereo not given) :: > 100 µM (inactive)
O=c1[nH]c2cc3cccnc3c(Cl)c2nc1CBr :: 21.7 µM (inactive)

Now consider the entry below.
[ask] Tell us which GI50 value is on record for `Cc1ccc(/N=N/c2c(O)ccc3ccccc23)c(C)c1`
[reply] > 100 µM (inactive)

----------
system: SNB-78; test: NCI tumour cell line growth inhibition, 48 h
Active and inactive are the calls of the source. Cut-off read from the data, not from the text of the source: active = GI50 up to about 1.1 µM and inactive = higher.
result.type: GI50

Use these answered entries as a reference point.
Cc1cc(C)nc(NS(=O)(=O)c2ccc(NC(=O)c3ccc(Cl)c4c(Nc5ccc(S(=O)(=O)Nc6nc(C)cc(C)n6)cc5)c5ccccc5nc34)cc2)n1 :: 3.71 µM (inactive)
CC1CC(=O)C(C(O)CC2CC(=O)N(c3ccccc3)C(=O)C2)C(C)C1 (stereo not given) :: > 100 µM (inactive)
O=C1NC2=C(CCCC/C2=N\O)C12CCCCC2 :: > 100 µM (inactive)

[ask] Tell us which GI50 value is on record for `Cn1c(=O)c2[nH]cnc2n(CC(=O)O)c1=O`
[reply] > 100 µM (inactive)

[ask] Tell us which GI50 value is on record for COC(=O)C(Cc1cc(OC)c(OC)c(OC)c1)c1ccc(OC)cc1 (stereo not given)
[reply] > 100 µM (inactive)

----------
test system: T47D; assay: NCI tumour cell line growth inhibition, 48 h
Calls of active or inactive are those of the source. Rule as the data show it: active = GI50 up to about 1.1 µM and inactive = higher.
Bench note: report the call from active, inactive

[ask] How did this test come out for `Cc1ccc2ccc(O)cc2c1` ?
[reply] inactive

[ask] How did this test come out for `C=C(CN)CO[Si](C)(C)C(C)(C)C` ?
[reply] inactive

[ask] How did this test come out for `c1ccc(N/N=N/c2ccc(-c3nc4ccccc4[nH]3)cc2)nc1` ?
[reply] inactive

[ask] How did this test come out for `CNn1c(-c2ccc(C)cc2)n[nH]c1=O` ?
[reply] inactive

[ask] How did this test come out for O=[N+]([O-])c1ccc(C2Nn3c(nnc3-c3cccc([N+](=O)[O-])c3)S2)cc1 (configuration not stated) ?
[reply] inactive

----------
system: SF-539; experiment: NCI tumour cell line growth inhibition, 48 h
Active and inactive are the calls of the source. No stated cut-off is given here; in the data, active = GI50 up to about 1.1 µM and inactive = higher.
result.type: GI50

O=C1NC2=C(CCCC/C2=N\O)C12CCCCC2 :: > 100 µM (inactive)
O=C1C=C(N2CCN(c3ncccn3)CC2)C(=O)c2c(O)ccc(O)c21 :: 21.6 µM (inactive)
CC(=O)CC(OC(C)=O)C1=CCC2C(CC1C)OC(=O)C2C (stereo unspecified) :: > 100 µM (inactive)
NS(=O)(=O)c1ccc(NC(=O)CC(=O)Nc2ccc(S(N)(=O)=O)cc2)cc1 :: > 100 µM (inactive)
CN(C)c1ccc(/C=c2\sc3nnc(-c4ccco4)n3c2=O)cc1 :: > 100 µM (inactive)

Now consider the entry below.
[ask] Tell us which GI50 value is on record for `CNn1c(-c2ccc(C)cc2)n[nH]c1=O`
[reply] > 100 µM (inactive)

----------
Catalogue of GI50 readings, one per entry.
test system: MCF7; experiment: NCI tumour cell line growth inhibition, 48 h
The source made the active and inactive calls. No stated cut-off is given here; in the data, active = GI50 up to about 1.1 µM and inactive = higher.

Use these answered entries as a reference point.
Cc1ccc2nc3n(c2c1)C(c1c(F)cccc1F)SC3 (stereo not given) :: 47.1 µM (inactive)
CNC1C(O)CC(OC2C/C=C(\C)C/C(C)=C/C=C/CCC(C)CNC(=O)/C=C/C=C/C2C)OC1C (stereo not given) :: 0.782 µM (active)

[ask] Tell us which GI50 value is on record for `COC(=O)CN1Cc2cc(C)cc(c2O)CN(CC(=O)OC)Cc2cc(C)cc(c2O)CN(CC(=O)OC)Cc2cc(C)cc(c2O)C1`
[reply] > 42 µM (inactive)

[ask] Tell us which GI50 value is on record for `COc1cc2c3c(n(C)c(=O)c2cc1OC)-c1cc2c(cc1/C3=C\CCCCCBr)OCO2`
[reply] 3.5 µM (inactive)

----------
system: BT-549; test: NCI tumour cell line growth inhibition, 48 h
The source made the active and inactive calls. Rule as the data show it: active = GI50 up to about 1.1 µM and inactive = higher.
Bench note: report the call from active, inactive

Cc1cn(C(Cc2ccccc2)OCCO)c(=O)[nH]c1=O (stereo not given) :: inactive
NC(CCC(=O)NC(CSC(=O)N(O)c1ccc(Cl)cc1)C(=O)NCC(=O)O)C(=O)O (stereo not given) :: active

[ask] How did this test come out for `O=C(Cn1c2ccc(Br)cc2c2nc3ccccc3nc21)NC1CCCCC1` ?
[reply] inactive

[ask] How did this test come out for O=C(OCC(OC(=O)c1ccccc1)C1CC(C(O)C2CCCCC2)C(=O)O1)c1ccccc1 (stereo not given) ?
[reply] inactive

----------
Catalogue of GI50 readings, one per entry.
system: OVCAR-8; test: NCI tumour cell line growth inhibition, 48 h
Calls of active or inactive are those of the source. Cut-off read from the data, not from the text of the source: active = GI50 up to about 1.1 µM and inactive = higher.

Use these answered entries as a reference point.
Cc1nc(-n2nc(-c3ccccc3)cc2-c2ccccc2)sc1C(/C=C\c1ccc([N+](=O)[O-])cc1)=N/NC(=S)NN :: 16.7 µM (inactive)
Cc1ccc(NC(=O)CSc2nc(O)nc3[nH]cnc23)cc1 :: > 100 µM (inactive)
COC(=O)C1([C@@H]2C[C@@H](O)[C@]3(C)CC/C=C(\C)CCC[C@H](C)[C@H](O)[C@@H]2O3)CC1 :: 88.9 µM (inactive)
COC(=O)C(Cc1cc(OC)c(OC)c(OC)c1)c1ccc(OC)cc1 (stereo not given) :: > 100 µM (inactive)

Now consider the entry below.
[ask] Tell us which GI50 value is on record for CCOC(=O)C1=C(C(=O)OCC)C2(c3ccccc3)N(O1)c1ccccc1C2(C)C (stereo not given)
[reply] 48.3 µM (inactive)
